System: naive CD62LhiCD4+CD25− LN T cells
Assay: Foxp3 induction in newly activated naive CD4 T cells (intracellular staining)
Assay type: cell-based, mouse
Condition Details: serum free AIM-V medium; without anti TGFβ and SB431542; 24-48 hours / 2 days
Measured Property: Foxp3 expression in control cultures, TCR signal deprived cultures subtracted (%)
Kindly provide the numeric value in % only, without the unit symbol.

[ask] Foxp3 expression in control cultures, TCR signal deprived cultures subtracted for CO[C@H]1C[C@@H]2CC[C@@H](C)[C@@](O)(O2)C(=O)C(=O)N2CCCC[C@H]2C(=O)O[C@H]([C@H](C)C[C@@H]2CC[C@@H](O)[C@H](OC)C2)CC(=O)[C@H](C)/C=C(\C)[C@@H](O)[C@@H](OC)C(=O)[C@H](C)C[C@H](C)/C=C/C=C/C=C/1C [rapamycin] ?
[reply] 28.6

[ask] Name the reported Foxp3 expression in control cultures, TCR signal deprived cultures subtracted value associated with the molecule O=c1cc(N2CCOCC2)oc2c(-c3ccccc3)cccc12 [Ly294002]
[reply] 21.5

[ask] Look at this molecule and give its reported Foxp3 expression in control cultures, TCR signal deprived cultures subtracted. COc1ccc2c(c1OC)N=C(NC(=O)c1cccnc1)N1CCN=C21 [PIK90]
[reply] 36.0

[ask] Please look up its Foxp3 expression in control cultures, TCR signal deprived cultures subtracted: Oc1cccc(-c2nc(N3CCOCC3)c3oc4ncccc4c3n2)c1 [PI-103]
[reply] 35.1
